Target: T1, human parathyroid hormone type 1 receptor (PTH1 receptor) (human, UniProt Q03431 27-593)
T1 construct: whole, on cells; also called human PTH1 receptor
T1 sequence (looked up): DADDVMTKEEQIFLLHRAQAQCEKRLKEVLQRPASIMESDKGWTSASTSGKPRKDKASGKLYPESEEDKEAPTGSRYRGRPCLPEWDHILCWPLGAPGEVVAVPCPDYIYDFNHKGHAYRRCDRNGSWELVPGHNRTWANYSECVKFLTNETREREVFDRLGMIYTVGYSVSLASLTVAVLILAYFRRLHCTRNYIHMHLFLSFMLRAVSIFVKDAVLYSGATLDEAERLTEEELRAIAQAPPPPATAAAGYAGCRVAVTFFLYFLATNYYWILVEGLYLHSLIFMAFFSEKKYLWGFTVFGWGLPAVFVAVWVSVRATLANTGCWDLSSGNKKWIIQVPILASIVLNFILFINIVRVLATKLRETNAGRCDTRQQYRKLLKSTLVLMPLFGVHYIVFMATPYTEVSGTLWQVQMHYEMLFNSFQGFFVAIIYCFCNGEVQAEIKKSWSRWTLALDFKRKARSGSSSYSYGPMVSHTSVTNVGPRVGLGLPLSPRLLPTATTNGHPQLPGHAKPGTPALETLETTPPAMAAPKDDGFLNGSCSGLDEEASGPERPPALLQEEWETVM
Experiment: displacement of [125I][Nle8,21,Tyr34]rPTH(1-34), 293PTH1 membranes, centrifugation assay, 10 µM GTPγS
quantity: IC50 (nM)
Expressed in nM, but write only the number.

In plain terms, DAAFRERARLLAALERRHWLNSYMHKLLVLDAP (also called bTIP(7-39)) [TIP(7-39)] has a documented IC50 of 5
